Entry source: patent US12187701B2

Catalogue of molecules with associated pIC50
tested on: HCT116 cells; assay: Antiproliferation assay, Cell Titer Glo, 72 hours; type: cell-based; details: Homo sapiens, HCT-116, 72 h
When answering, recall that pIC50 equals minus log10 of the concentration in mol/L, and write that number alone.

Recorded results for 5 molecules are shown here.
1) CN(C)C/C=C/C(=O)Nc1ccc(CN2CCC(NC(=O)c3n[nH]cc3NC(=O)c3c(Cl)cccc3Cl)CC2)cc1 = 8.59
2) COc1cccc(Cl)c1C(=O)Nc1c[nH]nc1C(=O)NC1CCN(Cc2cccc(NC(=O)/C=C/CN(C)C)c2)CC1 = 6.94
3) CN(C)C/C=C/C(=O)N1CCC(NC(=O)c2n[nH]cc2NC(=O)c2c(Cl)cccc2Cl)CC1 = 5.97
4) C=CC(=O)N1CCC[C@@H](NC(=O)c2n[nH]cc2NC(=O)c2c(Cl)cccc2Cl)C1 = 7.41
5) CN(C)C/C=C/C(=O)Nc1cccc(N2CCC(NC(=O)c3n[nH]cc3NC(=O)c3c(Cl)cccc3Cl)CC2)c1 = 6.37

Shifting focus to the molecule that follows.
Entry C=CC(=O)Nc1cccc(CN2CCC(NC(=O)c3n[nH]cc3NC(=O)c3c(Cl)cccc3Cl)CC2)c1 , HCT116 cells data, pIC50 value: 9.05
